# EC50 (read off the curve) per record follows
assayedTarget: T1, human PD-L1 (human, UniProt Q9NZQ7 19-238, limits assumed)
T1 construct: also called hPD-L1
T1 sequence (Q9NZQ7 19-238 limits assumed): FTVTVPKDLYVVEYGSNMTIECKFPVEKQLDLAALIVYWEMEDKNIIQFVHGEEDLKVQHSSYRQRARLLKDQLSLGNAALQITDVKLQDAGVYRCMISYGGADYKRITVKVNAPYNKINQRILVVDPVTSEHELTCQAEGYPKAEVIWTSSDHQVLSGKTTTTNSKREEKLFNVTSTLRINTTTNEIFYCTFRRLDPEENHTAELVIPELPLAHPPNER
testProtocol: flow cytometry on MDA-MB-231 cells (PD-L1 on the cell surface), PE-labelled secondary antibody, MFI

Worked cases, EC50 (read off the curve) given:
[
  {
    "binder": "Clone B (antibody, V domains shown, Mouse hybridoma clone) VH: QGQMQQSGAELVKPGASVKLSCKTSGFTFSSSYISWLKQKPGQSLEWIAWIYAGTGGTSYNQKFTGKAQLTVDTPSSTAYMQFSSLTTEDSAIYYCARHEGKYWYFDVWGAGTTVTVSS VL: QILLTQSPAIMSASPGEKVTMTCSASSSVSYVHWYQQKPGSSPKPWIYDTSNLASGFPARFSGSGSGTSYSLIISSMEAEDAATYYCHQRSSYPWTFGGGTKLEIK",
    "EC50 (read off the curve)": "~0.06 µg/mL"
  },
  {
    "binder": "Clone C (antibody, V domains shown, Mouse hybridoma clone) VH: EVQLQQSGADLVKPGASVKLSCTASGFNIKDTYMHWVKQRPEQGLEWIGRIDPANGNTKYDPKFQGKATITTDTSSNTAYLQLSSLTSEDTAVYYCARGLGRWFAYWGQGTLVTVSA VL: DIVMTQSHKFMSTSVGDRVSITCKASQDVSNAVAWYQQKPGQSPELLIYSASNRYTGVPDRFTGSGSGTDFTFTISSVQAEDLAVYYCQQHDSTPLTFGAGTKLELK",
    "EC50 (read off the curve)": "~0.03 µg/mL"
  }
]

// recorded EC50 (read off the curve) for Clone N (antibody, V domains shown, Mouse hybridoma clone) VH: EVQLQQSGPELVKPGASMKISCKASGYSFTGYTMNWVKQSHGKNLEWIGLIIPHNGGTSYNQKFKDKATLTVDKSSRTAYMELLSLTSEDSAVYYCASLMTTAPRDSMDYWGQGTSVTVSS VL: DIQMTQTTSSLSASLGDRVTISCRASQDISNYLNWYQQKPDGTVKLLIYYTSRLHSGVPSRFSGSGSGTDYSLTISNLDQEDIATYFCQQGATLPWTFGGGTKLEIK : ~0.03 µg/mL

So, Clone D (antibody, V domains shown, Mouse hybridoma clone) VH: EVQLQQSGPELVKPGASMKISCKASGYSFTGYTMNWVKQSHGKNLEWIGLIIPYNGGISYNQKFKDKATLTVDKSSSTAYMELLSLTSEDSAVYYCASLITTAPRDSMDYWGQGTSVTVSS VL: DIQMTQTTSSLSASLGDRVTISCRASQDISNYLNWYQQKPDGSVKLLIYYTSKLHSGVPSRFSGSGSGTDYSLTISNLEQEDIATYFCQQGDALPWTFGGGTKLEIK ? Its EC50 (read off the curve) was ~0.03 µg/mL

src = patent US20230340142A1
